Where these numbers come from: patent US20170182047A9

biological target: UniProt Q9Y6A2; test: Spectral binding studies; set-up: fused on or other part: C-terminal 4xHis tag (dH); conditions: Table 2
Sequence (Q9Y6A2 whole entry): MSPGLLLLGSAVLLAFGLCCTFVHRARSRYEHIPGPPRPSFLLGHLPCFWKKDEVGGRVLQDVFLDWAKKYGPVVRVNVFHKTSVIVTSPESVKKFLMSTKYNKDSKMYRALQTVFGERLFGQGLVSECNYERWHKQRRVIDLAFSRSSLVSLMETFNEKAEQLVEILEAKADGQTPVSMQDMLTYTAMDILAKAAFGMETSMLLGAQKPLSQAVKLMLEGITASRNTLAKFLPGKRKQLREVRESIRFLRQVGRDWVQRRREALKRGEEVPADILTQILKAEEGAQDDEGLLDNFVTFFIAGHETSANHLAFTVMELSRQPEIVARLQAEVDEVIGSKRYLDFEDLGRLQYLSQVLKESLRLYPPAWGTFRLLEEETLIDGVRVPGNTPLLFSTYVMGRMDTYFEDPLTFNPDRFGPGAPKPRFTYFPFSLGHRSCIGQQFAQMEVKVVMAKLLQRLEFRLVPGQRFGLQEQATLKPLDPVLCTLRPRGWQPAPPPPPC
Counter-ions that a name gives are not always drawn.
OBSERVATION_TYPE: Kd (nM)
Use nM as the unit, but write only the number.

CC(C)CCC[C@@H](C)[C@H]1CC[C@H]2[C@@H]3CC=C4C[C@@H](OS(=O)(=O)O)CC[C@]4(C)[C@H]3CC[C@]12C [Cholesterol-SO4, cholesterol sulfate]: 50

From here, focus on the item given below.
Q. Report measured Kd; entry is CC(C)CCC[C@@H](C)[C@H]1CC[C@H]2[C@@H]3CC=C4C[C@@H](O)CC[C@]4(C)[C@H]3CC[C@]12C
A. 670

###

biological target: CYP46A1 (Homo sapiens, UniProt Q9Y6A2); assay: Spectral binding studies; parameters: 4×His (C)
Sequence (Q9Y6A2 with tags, fused parts or gaps): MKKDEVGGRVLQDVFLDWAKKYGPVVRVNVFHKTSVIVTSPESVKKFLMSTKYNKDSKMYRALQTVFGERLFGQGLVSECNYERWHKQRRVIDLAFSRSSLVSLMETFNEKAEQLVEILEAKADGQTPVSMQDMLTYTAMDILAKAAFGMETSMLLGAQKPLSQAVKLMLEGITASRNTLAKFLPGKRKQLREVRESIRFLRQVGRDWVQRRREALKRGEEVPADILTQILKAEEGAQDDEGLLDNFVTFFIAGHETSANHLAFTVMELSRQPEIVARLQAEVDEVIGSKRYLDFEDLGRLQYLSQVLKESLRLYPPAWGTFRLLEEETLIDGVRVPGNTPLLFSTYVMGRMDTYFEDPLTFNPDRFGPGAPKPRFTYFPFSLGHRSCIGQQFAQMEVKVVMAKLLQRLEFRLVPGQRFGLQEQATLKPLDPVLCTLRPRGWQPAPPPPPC
Where a name gives a salt, the structure may show the parent alone.
OBSERVATION_TYPE: pKd
// scale note: pKd = -log10(conc_M); give the bare number

Q. Report measured pKd; entry is CC(C)CCC[C@@H](C)[C@H]1CC[C@H]2[C@@H]3CC=C4C[C@@H](OS(=O)(=O)O)CC[C@]4(C)[C@H]3CC[C@]12C [Cholesterol-SO4, cholesterol sulfate]
A. 8.15

###

biological target: CYP46A1 (Homo sapiens, UniProt Q9Y6A2); experiment: In vitro IC50 and Ki for CYP46A1-catalysed hydroxylation; assay type: biochemical; parameters: Recombinant full-length human CYPs 46A1 and 27A1 and bovine CYP11A1 were expressed and purified; made in house; settings: estimated, competitive inhibition, cholesterol equal to the Km; read-out: Ki for cholesterol 24-hydroxylation
OBSERVATION_TYPE: pKi
// scale note: pKi = -log10(conc_M); give the bare number

Q. Report the value of pKi obtained on CYP46A1 (Homo sapiens, UniProt Q9Y6A2) for C[C@@H](c1ncncc1F)[C@](O)(Cn1cncn1)c1ccc(F)cc1F .
A. 7.96

###

target: CYP11A1 (Bos taurus); construct: Recombinant full-length human CYPs 46A1 and 27A1 and bovine CYP11A1 were expressed and purified; test: Spectral binding assay of antifungal azoles; conditions: 0.3 μM purified P450; read-out: apparent Kd
Sequence (P00189 40-520): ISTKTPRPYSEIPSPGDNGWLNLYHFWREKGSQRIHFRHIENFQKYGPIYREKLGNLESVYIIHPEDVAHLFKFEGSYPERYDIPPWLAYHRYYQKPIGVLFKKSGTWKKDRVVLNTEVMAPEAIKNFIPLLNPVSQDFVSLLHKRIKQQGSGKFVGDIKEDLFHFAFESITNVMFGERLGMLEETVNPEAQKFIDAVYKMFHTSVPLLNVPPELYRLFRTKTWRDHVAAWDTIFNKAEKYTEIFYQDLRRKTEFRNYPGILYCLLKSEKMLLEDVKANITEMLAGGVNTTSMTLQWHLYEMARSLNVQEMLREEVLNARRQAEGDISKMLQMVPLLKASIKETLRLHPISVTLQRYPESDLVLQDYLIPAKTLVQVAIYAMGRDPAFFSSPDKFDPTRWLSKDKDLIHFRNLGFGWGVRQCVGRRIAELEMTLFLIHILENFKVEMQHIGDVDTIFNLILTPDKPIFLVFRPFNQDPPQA
OBSERVATION_TYPE: Kd (µM)
Use µM as the unit, but write only the number.

Q. Report the value of Kd obtained on CYP11A1 (Bos taurus) for C[C@@H](c1ncncc1F)[C@](O)(Cn1cncn1)c1ccc(F)cc1F .
A. 4.8
